tgt: Human COX-2 (Homo sapiens, UniProt P35354)
Construct: Human blood (≈50 mL) from male or female donors who had not received any aspirin or NSAIDs for 14 days was collected; endogenous in cells; host or cells: human whole blood from donors, heparinised, COX-2 induced with E. coli LPS
Sequence (P35354 18-604): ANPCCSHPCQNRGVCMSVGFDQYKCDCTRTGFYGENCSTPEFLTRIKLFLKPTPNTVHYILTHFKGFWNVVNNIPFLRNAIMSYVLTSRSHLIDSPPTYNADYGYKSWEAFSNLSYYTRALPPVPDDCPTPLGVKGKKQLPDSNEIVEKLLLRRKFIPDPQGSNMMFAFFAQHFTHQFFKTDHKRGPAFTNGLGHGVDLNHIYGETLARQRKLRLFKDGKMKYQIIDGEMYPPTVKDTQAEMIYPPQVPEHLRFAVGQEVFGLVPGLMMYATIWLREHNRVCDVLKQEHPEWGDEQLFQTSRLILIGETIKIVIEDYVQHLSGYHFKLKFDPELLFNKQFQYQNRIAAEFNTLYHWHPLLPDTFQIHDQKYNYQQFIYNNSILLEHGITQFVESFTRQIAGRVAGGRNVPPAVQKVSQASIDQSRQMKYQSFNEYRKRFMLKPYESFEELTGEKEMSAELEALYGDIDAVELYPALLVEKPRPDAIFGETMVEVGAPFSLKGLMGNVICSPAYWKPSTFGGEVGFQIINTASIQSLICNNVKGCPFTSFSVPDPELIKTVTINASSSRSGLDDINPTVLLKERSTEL
methodDescription: COX-2 enzyme activity in human whole blood (LPS-induced, thromboxane B2 EIA)
Assay type: cell-based
conditions: 10 μM test compound
Reported inhibition at 10 µM is given for each of the following compounds.
observedProperty: inhibition at 10 µM (%)

compound: CS(=O)(=O)c1ccc(-c2cc(/C=C/CO[N+](=O)[O-])nn2CC2CCCCC2)cc1 [Example 4e]
val: 75
--
compound: C=Cc1cc(-c2ccc(S(C)(=O)=O)cc2)n(CC2CCCCC2)n1 [Example 6b]
val: 100
--
compound: CS(=O)(=O)c1ccc(-c2ncccc2C(=O)c2ccccn2)cc1 [Example 11b]
val: 15
--
compound: CS(=O)(=O)c1ccc(-c2ncccc2C(=O)c2cccc(F)c2)cc1 [Example 10c]
val: 50
--
compound: CS(=O)(=O)c1ccc(-c2cc(CCCO[N+](=O)[O-])nn2CC2CCCCC2)cc1 [Example 5c]
val: 100
--
compound: CS(=O)(=O)c1ccc(-c2cc(COCCO[N+](=O)[O-])nn2CC2CCCCC2)cc1 [Example 2f]
val: 75
--
compound: CS(=O)(=O)c1ccc(-c2cc(CO[N+](=O)[O-])nn2CC2CCCCC2)cc1 [Example 1h]
val: 65
--
compound: CCOC(=O)c1cccc(C(=O)c2cccnc2-c2ccc(S(C)(=O)=O)cc2)c1 [Example 12b]
val: 20

* * *

tgt: Human COX-2 (Homo sapiens)
Construct: Human blood (≈50 mL) from male or female donors who had not received any aspirin or NSAIDs for 14 days was collected; endogenous in cells; host or cells: human whole blood from donors, heparinised, COX-2 induced with E. coli LPS
methodDescription: COX-2 enzyme activity in human whole blood (LPS-induced, thromboxane B2 EIA)
Assay type: cell-based
conditions: 10 μM test compound
Method: Human blood (≈50 mL) from male or female donors who had not received any aspirin or NSAIDs for 14 days was collected at two local area blood donor centers and placed in polypropylene syringes containing sodium heparin (20 units per mL blood, final concentration). The blood was transported to the laboratory on ice packs and used within 1.5 hours of collection. […]
Reported inhibition at 10 µM is given for each of the following molecules.

molecule: CS(=O)(=O)c1ccc(-c2cc(CO)nn2Cc2ccccc2)cc1 [Example 3c]
tgt: Human COX-2 (Homo sapiens)
uom: %
inhibition at 10 µM: 15
//
molecule: COC(=O)c1cc(-c2ccc(S(C)(=O)=O)cc2)n(Cc2ccccc2)n1 [Example 8]
tgt: Human COX-2 (Homo sapiens)
uom: %
inhibition at 10 µM: 25
//
molecule: CS(=O)(=O)c1ccc(-c2cc(CO[N+](=O)[O-])nn2Cc2ccccc2)cc1 [Example 3d]
tgt: Human COX-2 (Homo sapiens)
uom: %
inhibition at 10 µM: 40
//
molecule: CS(=O)(=O)c1ccc(-c2cc(C(F)(F)F)cnc2C(C#N)c2ccccc2)cc1 (centres unmarked) [Example 9b]
tgt: Human COX-2 (Homo sapiens)
uom: %
inhibition at 10 µM: 55
//
molecule: CS(=O)(=O)c1ccc(-c2cc(CO)nn2CC2CCCCC2)cc1 [Example 1g]
tgt: Human COX-2 (Homo sapiens)
uom: %
inhibition at 10 µM: 45
